Kindly supply the reported composite z-score values for the records listed here.
- Protocol summary: small-molecule binders of probe aNOTCH2, primary screen, biochemical, small-molecule microarray, 635/667 nm fluorescence (AID 1121);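 also: score merges feature fluorescence read at 667 nm with its signal to noise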
- Particulars: higher = more signal
The reply should be a number, written without any unit.

Consider C=C(C(=O)CC[C@H](OC(C)=O)c1cccc(OCCO)c1)C(C)C . Its measured composite z-score is -0.148

Consider O=C1c2ccccc2[C@](Cc2ccccc2I)(C(=O)NCCN2CCOCC2)[C@H](c2ccc(CO)cc2)N1Cc1ccccc1 . Its measured composite z-score is -0.0468

Consider COCCOC(=O)N1C(=O)[C@@]2(c3cc(C#CCNC(N)=O)ccc31)[C@H](C(=O)N1CCCCCCC1)[C@H]1C(=O)O[C@H](c3ccccc3)[C@H](c3ccccc3)N1[C@@H]2c1ccc(O)cc1 . Its measured composite z-score is -0.0714

Consider O=C(O)[C@]1(Cc2ccccc2)N=C(c2ccc(OCCCO)cc2)O[C@@H]1c1ccccc1 . Its measured composite z-score is -0.14

Consider COc1ccc(NC(=O)O[C@H]2[C@H](OC(=O)Nc3ccc4c(c3)OCO4)[C@@H](OC(=O)Nc3ccc4c(c3)OCO4)[C@@H](OC)O[C@@H]2CO)cc1 . Its measured composite z-score is -0.0116

Consider COC(=O)[C@@]1(Cc2ccc(OC)cc2)[C@H]2c3cc(C(=O)N(C)C)n(CCc4c[nH]c5ccc(O)cc45)c3C[C@H]2CN1C(=O)c1ccccc1 . Its measured composite z-score is 0.357

Consider CCOC(=O)C[C@H]1[C@H](OC(=O)Cc2ccc3c(c2)OCO3)[C@@H](NC(=O)Cc2ccc(OC)cc2)c2cc(OCCCO)ccc2N1C(=O)c1ccccc1 . Its measured composite z-score is -0.0502

Consider Cc1ccc(S[C@]2(C(=O)NCCN3CCOCC3)CC(=O)N(Cc3ccccc3C(F)(F)F)[C@@H]2c2ccc(CO)cc2I)cc1 . Its measured composite z-score is -0.131

Consider C=CCOC(=O)[C@H]1[C@@H]2C(=O)O[C@@H](c3ccccc3)[C@@H](c3ccccc3)N2[C@@H](c2ccc(OCCOC(=O)[C@H]3C[C@H]4C(=O)N[C@@H](Cc5ccccc5)C(=O)N4[C@H]3c3ccc(O)cc3)cc2)[C@]12C(=O)Nc1ccc(I)cc12 . Its measured composite z-score is -0.11

Consider C=C(C(=O)CC[C@H](OC(=O)c1cccnc1)c1ccc(CO)o1)C(C)C . Its measured composite z-score is -0.0633

Consider CC(CO)N1C(=O)[C@@H]2C3C(=O)OCCC/C=C\[C@H]3OC23C=CCN(Cn2nnc4ccccc42)C(=O)[C@@H]13 (some centres undefined) . Its measured composite z-score is -0.14

Consider COc1ccccc1CN1C(=O)c2ccccc2[C@@H](C(=O)NC(C)C)[C@@H]1c1ccc(CO)cc1 . Its measured composite z-score is 0.103

Consider C=C(CCCC)C(=O)CC[C@@H](OC(=O)c1cccnc1)c1ccccc1OCCO . Its measured composite z-score is -0.0804

Consider COC(=O)c1c(CC[C@@H](CO)NC(=O)N[C@H](Cn2cc(-c3ccccc3C)nn2)C(C)C)oc(C(C)=O)c1C(=O)OC . Its measured composite z-score is -0.075

====

- Tested on: Calmodulin-1 (Homo sapiens) (UniProt P0DP23)
- Protocol summary: CALM1 binders on microarrays, EGTA buffer, profiling panel, biochemical, small-molecule microarray, Cy5-labelled CALM1 (AID 1111);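 also: labelled calmodulin applied in Tris saline Tween buffer holding calcium plus EGTA and DTT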
- Particulars: Cy5-CALM1 binding fluorescence, higher = more signal
Kindly supply the reported composite z-score values for the records listed here.
The reply should be a number, written without any unit.

Lab note: compound NC(=O)NCC#Cc1ccc2c(c1)[C@]1(C(=O)N2)[C@H](C(=O)O)[C@H]2C(=O)O[C@H](c3ccccc3)[C@H](c3ccccc3)N2[C@@H]1c1ccccc1OCCO tested on Calmodulin-1 (Homo sapiens) (UniProt P0DP23); recorded composite z-score was 2.05

Lab note: compound NC(=O)NCC#Cc1ccc2c(c1)[C@]1(C(=O)N2)[C@H](c2ccc(O)cc2)N2[C@H](c3ccccc3)[C@H](c3ccccc3)OC(=O)[C@H]2[C@@H]1C(=O)Nc1nc2ccccc2s1 tested on Calmodulin-1 (Homo sapiens) (UniProt P0DP23); recorded composite z-score was 0.563

Lab note: compound CC=CC(O)C1C=CC2C(=O)N(C)C(=O)C2N1Nc1ccc([N+](=O)[O-])cc1[N+](=O)[O-] (stereo not drawn) tested on Calmodulin-1 (Homo sapiens) (UniProt P0DP23); recorded composite z-score was -0.086
